Tested on: swine
TEST_PROTOCOL: pilot physiological study in healthy, chronically instrumented swine
Assay type: in vivo
EXPERIMENTAL_SETUP: animal 1, three-step infusion; 2h
OBSERVED_PROPERTY: LV dP/dtmax (mmHg/s)
# output: bare number, implied unit mmHg/s

State its LV dP/dtmax on swine: COCCOc1ccc(-c2cn(-c3ccccc3)c3ncn(COP(=O)(O)O)c(=O)c23)cc1 [DMX-10001] 4840

###

Test system: swine
TEST_PROTOCOL: pilot physiological study in healthy, chronically instrumented swine
Type: in vivo
EXPERIMENTAL_SETUP: animal 1, three-step infusion; 2 min
OBSERVED_PROPERTY: LV dP/dtmax
Returns: string containing the number followed by the unit.

State its LV dP/dtmax on swine: COCCOc1ccc(-c2cn(-c3ccccc3)c3ncn(COP(=O)(O)O)c(=O)c23)cc1 [DMX-10001] 4070 mmHg/s

The values you see were collected from paper PMC8137473.
